Reference source for all entries: patent US10392422B2

# Test system: MRSA COL (NRS100)
# Protocol Description: MIC, broth micro-dilution technique (CLSI)
# Assay type: cell-based, Staphylococcus aureus
# Particulars: Table 2 modified protocol: serial 2-fold dilutions starting from 4 μg/mL; 35° C., 22 hours
Please use Y for MIC (μg/mL) (COL) under 0.4 µg/mL and N for everything else, ties included.

- CCCCCCCCCC(=O)NCC(=O)N(C)[C@@H]1C(=O)N[C@@H](C)C(=O)N[C@H](C(=O)N[C@@H](C)C(C)=O)Cc2ccc(OCCN)c(c2)-c2cc1ccc2OCCN.O=CO: N

Query :: In plain terms, does CCCCCCCCCCNCCC(=O)N(C)[C@@H]1C(=O)N[C@@H](C)C(=O)N[C@H](C(=O)N[C@@H](C)C(C)=O)Cc2ccc(OCCN)c(c2)-c2cc1ccc2OCCN.O=CO come in under 0.4 µg/mL for MIC (μg/mL) (COL)?
Result :: N

Query :: Is it true that MIC (μg/mL) (COL) reported for C[C@@H]1NC(=O)[C@@H](N(C)C(=O)[C@H](CCCCN)NC(=O)c2ccc(-c3ccc(Cl)cc3)cc2)c2ccc(OCCN)c(c2)-c2cc(ccc2OCCN)C[C@@H](C(=O)N[C@@H](C)C(=O)c2[nH]ncc2[N+](=O)[O-])NC1=O is less than 0.4 µg/mL?
Result :: Y

---

Let's look at some molecules and their measured MIC (μg/mL) E. coli.
# Test system: Escherichia coli MC4100 harboring the IMP4213
# Protocol Description: MIC, broth micro-dilution technique (CLSI)
# Format: cell-based
# Particulars: Table 2 modified protocol: serial 2-fold dilutions starting from 4 μg/mL; 35° C., 22 hours

Query :: Give the reported MIC (μg/mL) E. coli for this molecule. C[C@@H]1NC(=O)[C@@H](N(C)C(=O)[C@H](CCCCN)NC(=O)c2ccc(-c3ccc(Cl)cc3)cc2)c2ccc(OCCN)c(c2)-c2cc(ccc2OCCN)C[C@@H](C(=O)N[C@@H](C)C(=O)c2c([N+](=O)[O-])cnn2C)NC1=O
Result :: 4 µg/mL

Query :: Return the recorded MIC (μg/mL) E. coli value; entry: CCCCCCCCCCNCC(=O)N(C)[C@@H]1C(=O)N[C@@H](C)C(=O)N[C@H](C(=O)N[C@@H](C)C(C)=O)Cc2ccc(OCCN)c(c2)-c2cc1ccc2OCCN.O=CO
Result :: >4 µg/mL

Query :: Indicate the recorded MIC (μg/mL) E. coli value for this molecule: CCCCCCCCS(=O)(=O)N[C@@H](CO)C(=O)N(C)[C@@H]1C(=O)N[C@@H](C)C(=O)N[C@H](C(=O)N[C@@H](C)C(C)=O)Cc2ccc(OCCN)c(c2)-c2cc1ccc2OCCN.O=CO
Result :: >4 µg/mL

Query :: For CCCCCCCCCC(=O)NCC(=O)N(C)[C@@H]1C(=O)N[C@@H](C)C(=O)N[C@H](C(=O)N[C@@H](C)C(C)=O)Cc2ccc(OCCN)c(c2)-c2cc1ccc2OCCN.O=CO , write its MIC (μg/mL) E. coli.
Result :: >4 µg/mL

Query :: Kindly indicate its recorded MIC (μg/mL) E. coli. Item: CCCCCCCCCC(=O)N[C@@H](CCSC)C(=O)N(C)[C@@H]1C(=O)N[C@@H](C)C(=O)N[C@H](C(=O)N[C@@H](C)C(C)=O)Cc2ccc(OCCN)c(c2)-c2cc1ccc2OCCN.O=CO
Result :: >4 µg/mL

Query :: Output measured MIC (μg/mL) E. coli for this item: CCCCCCCCCC(=O)N[C@@H](CO)C(=O)N(C)[C@@H]1C(=O)N[C@@H](C)C(=O)N[C@H](C(=O)N[C@@H](C)C(=O)c2nnn[nH]2)Cc2ccc(OCCN)c(c2)-c2cc1ccc2OCCN.O=CO
Result :: 4 µg/mL
